Test system: isolated rat heart
assay.overview: Reperfusion Induced Arrhythmias in the isolated rat heart
Parameters: species or system rat (Charles Foster)
assay.setup: LAD ligation 15 min, reperfusion 30 min, read-out: IC50 for VFD (50% reduction of duration of ventricular fibrillation)
parameter: IC50

[[record]]
smiles_text = "CC1=C(C(=O)N=C(N)N)Cc2ccccc21"
result = "25 nM"

[[record]]
smiles_text = "CC1=C(C(=O)N=C(N)N)Cc2c(Cl)cccc21"
result = "17 nM"


---

Entries and their IC50
target.under.test: Na^+ /H^+ -exchanger (Oryctolagus cuniculus, UniProt P23791)
Construct: Na^+ /H^+ -exchanger activity in the erythrocytes; endogenous in cells
Sequence (P23791 whole entry): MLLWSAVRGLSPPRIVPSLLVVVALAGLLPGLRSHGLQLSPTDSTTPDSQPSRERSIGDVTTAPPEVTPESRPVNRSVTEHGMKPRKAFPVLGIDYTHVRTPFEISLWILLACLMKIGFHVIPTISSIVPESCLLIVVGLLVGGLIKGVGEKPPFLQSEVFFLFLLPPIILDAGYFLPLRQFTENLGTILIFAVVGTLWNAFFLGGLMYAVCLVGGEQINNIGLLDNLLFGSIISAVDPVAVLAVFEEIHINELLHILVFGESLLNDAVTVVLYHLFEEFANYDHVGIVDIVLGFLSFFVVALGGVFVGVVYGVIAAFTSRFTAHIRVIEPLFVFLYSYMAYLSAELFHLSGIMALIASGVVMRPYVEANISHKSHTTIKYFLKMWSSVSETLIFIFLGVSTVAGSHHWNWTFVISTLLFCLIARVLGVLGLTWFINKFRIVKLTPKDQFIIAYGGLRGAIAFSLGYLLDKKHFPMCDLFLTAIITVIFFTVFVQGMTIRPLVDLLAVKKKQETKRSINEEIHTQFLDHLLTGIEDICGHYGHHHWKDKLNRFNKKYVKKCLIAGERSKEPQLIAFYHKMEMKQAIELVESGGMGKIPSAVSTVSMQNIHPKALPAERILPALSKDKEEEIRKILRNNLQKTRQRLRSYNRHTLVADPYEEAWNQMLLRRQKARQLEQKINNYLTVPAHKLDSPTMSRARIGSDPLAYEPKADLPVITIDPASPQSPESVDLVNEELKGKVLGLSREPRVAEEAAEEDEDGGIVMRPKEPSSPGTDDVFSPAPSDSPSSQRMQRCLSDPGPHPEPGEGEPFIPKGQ
assay.overview: Sodium-Proton exchange inhibition in rabbit erythrocytes
assay.setup: 37° C., 1 hour, hyperosmolar sucrose buffer, 0.1 mM Ouabain, read-out: IC50 (concentration necessary to reduce the erythrocyte sodium content to 50%)
parameter: IC50 (nM)

[[record]]
smiles_text = "CC1=C(C(=O)N=C(N)N)Cc2c(Cl)cccc21"
parameter = "IC50"
result_number = 18

[[record]]
smiles_text = "CC1=C(C(=O)N=C(N)N)Cc2ccccc21"
parameter = "IC50"
result_number = 90


Reference source: patent US5733934A
